# Assay Protocol: recombinant barcode read abundance after kanamycin selection (control-corrected) (log10(CPM+1)); higher = more efficient recombination; sequences stand for … in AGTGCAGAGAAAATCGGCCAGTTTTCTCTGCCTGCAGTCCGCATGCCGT…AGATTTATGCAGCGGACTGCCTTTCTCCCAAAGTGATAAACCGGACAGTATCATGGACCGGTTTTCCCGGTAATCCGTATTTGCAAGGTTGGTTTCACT; site = the 11-nt target;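 note: IS621 recombinase and bridge RNA in Escherichia coli cells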
Classification field: yes = recombinant barcode read abundance (log10) at or over 0.3; no = recombinant barcode read abundance (log10) under 0.3.

• ATTGGGTCTTGGGTTCTAACCTGTTGCCT (site ATTGGTTCTAG) = no

Ask | Dear colleague, could you confirm whether CCAAGGGCTTGGGTTCTAACCTGTTGCGG (site CCAAGGGCTCG) has recombinant barcode read abundance (log10) at or above 0.3?
Reply | no

Ask | Quick check: does GTGATCCCTTGGGTTCTAACCTGTTGCTG (site GTGAACTCTCA) have recombinant barcode read abundance (log10) greater than or equal to 0.3?
Reply | no

Ask | Is it the case that GTCGGAGCTTGGGTTCTAACCTGTTGCGG (site GTCGGAGCTCA) has recombinant barcode read abundance (log10) reaching or exceeding 0.3?
Reply | no
